molecular target: human TRPA1 (Homo sapiens); assay: FLIPR Ca2+ assay, reduction of hydrogen peroxide activation of TRPA1; format: cell-based; parameters: expressed in transfected cells
# reported % Reduction of Hydrogen Peroxide TRPA1 Activation; entries follow
All answers are understood in %, so give the number only.

NC(N)=O [urea]	52.4

// % Reduction of Hydrogen Peroxide TRPA1 Activation lookup, compound = CC(C)C(=O)O[C@@H]1C[C@H]2CC[C@]1(C)C2(C)C [Isobornyl Isobutyrate] , result: 80

// % Reduction of Hydrogen Peroxide TRPA1 Activation lookup, compound = CCCCO [n-butyl alcohol] , result: 57.3

// % Reduction of Hydrogen Peroxide TRPA1 Activation lookup, compound = O=C1O[C@H]([C@H](O)CO)C([O-])=C1O.[Na+] [sodium erythorbate] , result: 54.5

---

biological target: human TRPA1 (Homo sapiens, UniProt O75762); assay: FLIPR Ca2+ assay, reduction of hydrogen peroxide activation of TRPA1; type: cell-based; set-up: expressed in transfected cells; details: compound 100 μM against 200 μM hydrogen peroxide; Sets 1-4
Sequence (O75762 whole entry): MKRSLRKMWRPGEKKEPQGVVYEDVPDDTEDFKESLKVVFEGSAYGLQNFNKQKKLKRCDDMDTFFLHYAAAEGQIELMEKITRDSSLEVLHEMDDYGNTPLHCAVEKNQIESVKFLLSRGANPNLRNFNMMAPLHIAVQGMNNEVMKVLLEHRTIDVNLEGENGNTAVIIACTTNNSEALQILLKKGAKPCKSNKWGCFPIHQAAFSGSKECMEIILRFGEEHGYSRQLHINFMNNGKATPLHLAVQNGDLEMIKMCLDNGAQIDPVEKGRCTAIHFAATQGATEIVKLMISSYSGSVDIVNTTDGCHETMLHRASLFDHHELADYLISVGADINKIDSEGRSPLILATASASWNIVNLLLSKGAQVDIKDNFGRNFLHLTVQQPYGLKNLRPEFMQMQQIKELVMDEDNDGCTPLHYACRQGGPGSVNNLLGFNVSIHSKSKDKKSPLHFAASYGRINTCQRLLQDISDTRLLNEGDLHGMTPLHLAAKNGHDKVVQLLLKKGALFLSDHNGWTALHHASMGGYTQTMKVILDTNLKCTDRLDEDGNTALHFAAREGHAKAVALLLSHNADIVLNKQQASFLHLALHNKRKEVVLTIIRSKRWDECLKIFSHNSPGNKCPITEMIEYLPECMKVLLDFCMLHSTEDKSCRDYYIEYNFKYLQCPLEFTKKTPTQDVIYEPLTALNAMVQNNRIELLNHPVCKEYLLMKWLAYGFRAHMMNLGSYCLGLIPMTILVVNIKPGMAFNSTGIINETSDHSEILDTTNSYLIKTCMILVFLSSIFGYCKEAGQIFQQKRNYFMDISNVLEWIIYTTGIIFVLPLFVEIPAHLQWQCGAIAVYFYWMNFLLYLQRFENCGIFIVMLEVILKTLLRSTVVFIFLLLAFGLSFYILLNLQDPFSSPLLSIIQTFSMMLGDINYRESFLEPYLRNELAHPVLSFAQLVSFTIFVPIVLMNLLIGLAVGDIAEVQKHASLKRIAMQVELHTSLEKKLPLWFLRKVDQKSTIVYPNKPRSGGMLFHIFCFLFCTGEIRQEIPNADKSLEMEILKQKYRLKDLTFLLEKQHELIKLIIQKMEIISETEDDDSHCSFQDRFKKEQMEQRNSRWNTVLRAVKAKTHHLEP
just bin them by Average Ca++ Counts: low group: < 3000 Counts; middle group: ≥ 3000 Counts and < 5000 Counts; high group: ≥ 5000 Counts

CC(C)CC(=O)OCCc1ccccc1 [phenylethyl isovalerate]	middle group

Query: Just checking, what class would you give CCCCOC(=O)C(C)O (stereo not shown) [butyl lactate] here?
Response: high group

Query: Just checking, what class would you give [Cl][Fe]([Cl])[Cl] [ferric chloride] here?
Response: middle group

Query: Just checking, what class would you give CC(CC=O)CCCC(C)(C)O (stereo not shown) [Hydroxycitronellal] here?
Response: high group

Query: Just checking, what class would you give `C=C(C)c1ccc(C)cc1` here?
Response: middle group

Query: Just checking, what class would you give CC(S)C(C)S (stereo not shown) here?
Response: low group

Query: Just checking, what class would you give `CC=CC(=O)O` here?
Response: high group

---

target: human TRPV1 (Homo sapiens, UniProt Q8NER1); assay: FLIPR Ca2+ assay, reduction of hydrogen peroxide activation of TRPV1; format: cell-based; set-up: expressed in transfected cells; settings: with compound, Dose 4000, 500 uM H2O2
Sequence (Q8NER1 whole entry): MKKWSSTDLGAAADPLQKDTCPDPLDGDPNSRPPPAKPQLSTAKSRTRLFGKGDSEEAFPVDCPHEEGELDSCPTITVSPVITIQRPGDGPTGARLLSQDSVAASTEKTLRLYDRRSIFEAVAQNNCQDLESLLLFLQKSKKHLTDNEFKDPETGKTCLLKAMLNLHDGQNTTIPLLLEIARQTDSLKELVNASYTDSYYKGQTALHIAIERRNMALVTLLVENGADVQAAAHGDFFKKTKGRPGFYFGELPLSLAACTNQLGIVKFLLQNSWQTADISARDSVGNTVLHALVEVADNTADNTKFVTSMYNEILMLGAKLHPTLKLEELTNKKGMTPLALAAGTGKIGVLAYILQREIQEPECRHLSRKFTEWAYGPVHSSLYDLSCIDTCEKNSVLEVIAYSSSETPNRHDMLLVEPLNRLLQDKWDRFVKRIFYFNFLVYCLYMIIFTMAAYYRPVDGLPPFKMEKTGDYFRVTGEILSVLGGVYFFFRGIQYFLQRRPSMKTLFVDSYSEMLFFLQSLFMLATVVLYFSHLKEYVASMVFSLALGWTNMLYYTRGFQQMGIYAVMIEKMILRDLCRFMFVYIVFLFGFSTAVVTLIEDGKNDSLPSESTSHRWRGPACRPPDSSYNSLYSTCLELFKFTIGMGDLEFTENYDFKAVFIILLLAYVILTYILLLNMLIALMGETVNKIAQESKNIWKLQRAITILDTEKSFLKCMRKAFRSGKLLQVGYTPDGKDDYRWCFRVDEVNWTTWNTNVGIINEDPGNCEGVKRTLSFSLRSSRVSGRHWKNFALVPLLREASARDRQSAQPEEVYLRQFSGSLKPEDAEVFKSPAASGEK
MEASURED_ATTRIBUTE: Ca++ counts
Reply with just the number.

Recorded Ca++ counts, per entry:
CCCCCC=CCC1CCCC1=O (centres unmarked)	922
Cn1cccc1C=O	380
CC(C)C(=O)OCc1ccc2c(c1)OCO2 [Piperonyl Isobutyrate]	682
CC/C=C/CC1CCCC1=O (centres unmarked)	903

// Ca++ counts lookup, molecule = CCCCOC(=O)C(C)C [Butyl Isobutyrate] , result: 774

---

# reported Average Ca++ Counts; entries follow
Molecular target: human TRPA1 (Homo sapiens)
Experiment: FLIPR Ca2+ assay, reduction of hydrogen peroxide activation of TRPA1
Format: cell-based
Parameters: expressed in transfected cells
Settings: compound 100 μM against 200 μM hydrogen peroxide; Sets 1-4
Protocol: After centrifugation, a pellet of cells was formed in the bottom of the tube separating them from the supernatant solution. The pelleted cells were re-suspended in 10 ml assay buffer and 90 μl aliquots (˜50,000 cells) per well delivered to a 96-well assay plate containing 10 μl of test compounds ([…]) or buffer control and incubated at room temperature for 30 minutes.
All answers are understood in Counts, so give the number only.

CCC(C)COC(=O)C(C)CC (centres unmarked) [2-methylbutyl 2-methylbutyrate]	2685.5
CCCCC(CC)CO (centres unmarked)	4960.5
CC(C)CCCC(=O)O	4747.0
Cc1ccc(C)c(O)c1	5208.0

Now examine the next entry.
Noted Average Ca++ Counts for CCC(C)(O)CCc1ccccc1 (centres unmarked) , tested on human TRPA1 (Homo sapiens): 2253.5

---

# reported inhibition at 100 µM; entries follow
target: human TRPV1 (Homo sapiens, UniProt Q8NER1); assay: FLIPR Ca2+ assay, reduction of L-Menthol activation of TRPV1; conditions: read-out: % Reduction of L-Menthol TRPV1 Activation
All answers are understood in %, so give the number only.

CCCCCCCC=O	31.6
CCCOC(=O)CCCCC(=O)OCCC	26.6
CCOC(=O)C(Cc1ccccc1)C(C)=O (stereo not shown) [ethyl 2-benzylacetoacetate]	20.3
Cc1cc(S)c(C)o1	25.2
Cc1cnc(C)cn1	43.8

// inhibition at 100 µM lookup, compound = `COc1cc(/C=C/C(=O)O)ccc1O` , result: 34.5

// inhibition at 100 µM lookup, compound = O=C(C=Cc1ccccc1)OCC=Cc1ccccc1 [3-phenyl-2-propen-1-yl 3-phenylacrylate] , result: 47.2

// inhibition at 100 µM lookup, compound = CC1(O)CSC(C)(O)CS1 (stereo not shown) , result: 58.9

// inhibition at 100 µM lookup, compound = CCCCCC(=O)OCC [ethyl hexanoate] , result: 42.9

// inhibition at 100 µM lookup, compound = CC(O)C(C)S (stereo not shown) , result: 45.3

// inhibition at 100 µM lookup, compound = CCC/C=C/C(OCC)OCC [trans-2-hexen-1-al diethyl acetal] , result: 37.9

// inhibition at 100 µM lookup, compound = CCC1CCC(=O)O1 (stereo not shown) , result: 41.8

---

# reported Average Ca2+ Counts; entries follow
target: human TRPV1 (Homo sapiens, UniProt Q8NER1); experiment: FLIPR Ca2+ assay, reduction of L-Menthol activation of TRPV1; details: antagonist 100 μM against 1 mM L-Menthol
All answers are understood in Counts, so give the number only.

Recorded Average Ca2+ Counts, per entry:
COc1ccc(C)cc1C [2,4-dimethylanisole]	1255.3
CCC(O)c1ccccc1 (stereo not shown) [phenylpropanol (1-phenyl 1-propanol), 1-phenyl 1-propanol]	1218.3
COc1ccc(C(C)=O)cc1 [4′-methoxyacetophenone]	1162.0
CCCCCCCCCCO [1-decanol]	1175.7

Noted Average Ca2+ Counts for CC(=O)C(=O)CC(C)C [5-methyl-2,3-hexanedione] , tested on human TRPV1 (Homo sapiens, UniProt Q8NER1): 2968.5

Noted Average Ca2+ Counts for CC/C=C\CCOC(=O)CCC [cis-3-hexenyl butyrate] , tested on human TRPV1 (Homo sapiens, UniProt Q8NER1): 2987.5

---

biological target: human TRPV1 (Homo sapiens); assay: FLIPR Ca2+ assay, reduction of hydrogen peroxide activation of TRPV1; type: cell-based; parameters: expressed in transfected cells; details: antagonist 100 μM against 500 μM hydrogen peroxide
# reported inhibition at 100 µM; entries follow
All answers are understood in %, so give the number only.

// inhibition at 100 µM lookup, compound = CC(=O)OC1=C(C)OC(C)C1=O (centres unmarked) [Strawberry Furanone Acetate, 4-Acetoxy-2,5-dimethyl-3(2H)-furanone] , result: 60

// inhibition at 100 µM lookup, compound = COC(=O)c1ccccc1N(C)C [Methyl N,N-Dimethylanthranilate] , result: 60

// inhibition at 100 µM lookup, compound = CC(=O)OC1CC2CCC1(C)C2(C)C (single isomer, unassigned; (-)) [(−)-Bornyl Acetate] , result: 53

// inhibition at 100 µM lookup, compound = CC(CC=O)CCCC(C)(C)O (centres unmarked) [Hydroxycitronellal] , result: 62

// inhibition at 100 µM lookup, compound = `CCOc1nccnc1CC` , result: 58

---

target: human TRPA1 (Homo sapiens, UniProt O75762); test: FLIPR Ca2+ assay, reduction of hydrogen peroxide activation of TRPA1; type: cell-based; parameters: expressed in transfected cells; conditions: compound 100 μM against 200 μM hydrogen peroxide; Sets 1-4; read-out: % Reduction of Hydrogen Peroxide TRPA1 Activation
MEASURED_ATTRIBUTE: inhibition at 100 µM (%)
All answers are understood in %, so give the number only.

COC(=O)c1ccc(O)cc1 [methyl 4-hydroxybenzoate]	53.7

// inhibition at 100 µM lookup, compound = CC(=O)c1ccc(C)o1 [2-acetyl-5-methylfuran] , result: 58.3

// inhibition at 100 µM lookup, compound = CC=CC(=O)O [but-2-enoic acid] , result: 51

// inhibition at 100 µM lookup, compound = CC(=O)C(C)O (stereo not drawn) [acetoin] , result: 59

// inhibition at 100 µM lookup, compound = CC(C)OC(=O)C(C)C [isobutyric acid isopropyl ester] , result: 51.8

// inhibition at 100 µM lookup, compound = CC12CCC(C1)C(C)(C)C2=O (stereo not drawn) [fenchone] , result: 60.8

// inhibition at 100 µM lookup, compound = CC1SCCS1 [2-methyl-1,3-dithiolane] , result: 72.5

// inhibition at 100 µM lookup, compound = CCCCCCC1OCC(C)O1 (stereo not drawn) [2-hexyl-4-methyl-1,3-dioxolan] , result: 52.1

// inhibition at 100 µM lookup, compound = Cc1ccc(C=O)c(O)c1 [2-hydroxy-4-methylbenzaldehyde] , result: 51.3

// inhibition at 100 µM lookup, compound = CCCCC/C=C\C/C=C\CCCCCCCC(=O)OC [methyl linoleate] , result: 52.2

// inhibition at 100 µM lookup, compound = CC(C)CCCC(C)CCO (stereo not drawn) [3,7-dimethyl-1-octanol, 95%, 3,7-dimethyl-1-octanol] , result: 51.2

// inhibition at 100 µM lookup, compound = Cc1ccc(C)c(O)c1 [2,5-dimethylphenol] , result: 50.8

// inhibition at 100 µM lookup, compound = COc1nccnc1CC(C)C [2-isobutyl-3-methoxypyrazine] , result: 56.4

// inhibition at 100 µM lookup, compound = O=C(C=Cc1ccccc1)OCc1ccccc1 [benzyl cinnamate] , result: 54.4

// inhibition at 100 µM lookup, compound = CCCCCO [amyl alcohol] , result: 55.3

// inhibition at 100 µM lookup, compound = SCCc1cnccn1 [2-pyrazinylethanethiol] , result: 81.2

// inhibition at 100 µM lookup, compound = CCOC(=O)CC(C)=O [ethyl acetoacetate] , result: 43.6

// inhibition at 100 µM lookup, compound = CCC(C)COC(=O)C(C)CC (stereo not drawn) [2-methylbutyl 2-methylbutyrate] , result: 61.9

// inhibition at 100 µM lookup, compound = CSCCC(C)=O [4-methylthio-2-butanone] , result: 43.5

// inhibition at 100 µM lookup, compound = CC(=O)c1ccc(C)cc1 [4′-methylacetophenone] , result: 53.9
